- Target Of Assay: KRas^G12D (Homo sapiens, UniProt P01116, G12D)
- Construct: Biotinylated KRas (corresponding to amino acids 1-169, produced at Accelegan Inc.); biotin (biotinylated); purchased Accelegan Inc
- Sequence (P01116 1-169 isoform P01116-2 G12D): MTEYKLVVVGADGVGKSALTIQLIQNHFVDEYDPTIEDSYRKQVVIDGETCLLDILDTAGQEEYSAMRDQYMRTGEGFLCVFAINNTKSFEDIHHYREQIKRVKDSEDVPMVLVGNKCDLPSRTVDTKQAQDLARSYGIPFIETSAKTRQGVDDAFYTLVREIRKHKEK
- Experiment Notes: KRas binding assay (TR-FRET tracer displacement), KRas G12D
As shown below, each of these compounds has a reported IC50 value.
Readout Type: IC50 (nM)

>>> value_observed("CCc1c(F)ccc2cc(O)cc(-c3ncc4c(/C=C/c5ccnn5C)nc(OC[C@@]56CCCN5C[C@H](F)C6)nc4c3F)c12 [Example 543]")
1690
>>> value_observed("O=C1NC(=O)C2(CCCN(c3nc(OCC45CCCN4CCC5)nc4c(F)c(-c5cc(O)cc(Cl)c5C5CC5)ncc34)C2)N1 (stereo not drawn) [Example 739]")
3

* * *

- Target Of Assay: KRas^G12S (Homo sapiens, UniProt P01116, G12S)
- Construct: Biotinylated KRas (corresponding to amino acids 1-169, produced at Accelegan Inc.); biotin (biotinylated); purchased Accelegan Inc
- Sequence (P01116 1-169 isoform P01116-2 G12S): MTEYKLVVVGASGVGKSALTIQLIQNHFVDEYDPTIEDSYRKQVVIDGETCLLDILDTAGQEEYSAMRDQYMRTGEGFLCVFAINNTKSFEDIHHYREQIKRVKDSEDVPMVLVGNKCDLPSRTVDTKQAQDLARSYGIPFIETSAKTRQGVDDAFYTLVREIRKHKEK
- Experiment Notes: KRas binding assay (TR-FRET tracer displacement), KRas G12S
- Particulars: single point, 10 nM compound, TR-FRET
Output TRUE for inhibition at 0.01 µM not less than 90%; output FALSE otherwise.

>>> assigned_label("CCc1c(F)ccc2cc(O)cc(-c3ncc4c(N5CCCn6nc(C(=O)N(C)C)c(C)c6C5)nc(OC[C@@]56CCCN5C[C@H](F)C6)nc4c3F)c12")
"TRUE"
>>> assigned_label("CCc1c(F)ccc2cc(O)cc(-c3ncc4c(N5CCCCn6nc(C(=O)N7CCOCC7)cc6C5)nc(OC[C@@]56CCCN5C[C@H](F)C6)nc4c3F)c12")
"TRUE"
>>> assigned_label("CCc1c(F)ccc2cc(O)cc(-c3ncc4c(N5CCC[C@@](C)(O)C5)nc(OC[C@@]56CCCN5[C@H](COC(=O)NC(C)C)CC6)nc4c3F)c12")
"TRUE"
>>> assigned_label("CCc1c(F)ccc2cc(O)cc(-c3ncc4c(N5C[C@@H]6C[C@H](C5)[C@H](O)[C@@H]6O)nc(OC[C@@]56CCCN5C[C@H](F)C6)nc4c3F)c12")
"TRUE"
>>> assigned_label("CCc1cccc2cc3[nH]ncc3c(-c3ncc4c(N5C[C@@H]6C[C@H](C5)[C@H](O)C6)nc(OC[C@@]56CCCN5C[C@H](F)C6)nc4c3F)c12")
"FALSE"
>>> assigned_label("CCc1c(F)ccc2cc(O)cc(-c3ncc4c(N5CCC[C@]6(C5)C[C@@H](O)C6)nc(OC[C@@]56CCCN5[C@H](COC(=O)N(C)C)CC6)nc4c3F)c12")
"FALSE"
>>> assigned_label("CCc1c(F)ccc2cc(O)cc(-c3ncc4c(N5CCC(O)c6nn(C(=O)N(C)C)cc6C5)nc(OC[C@@]56CCCN5C[C@H](F)C6)nc4c3F)c12 (some centres unmarked)")
"TRUE"
>>> assigned_label("CCc1c(F)ccc2cc(O)cc(-c3ncc4c(N5CCCC6(C5)NC(=O)NC6=O)nc(OC[C@]56CCCN5[C@H](COC(=O)N(C)C)CC6)nc4c3F)c12 (some centres unmarked)")
"TRUE"
>>> assigned_label("CCc1c(F)ccc2cc(O)cc(-c3ncc4c(N5CCCCC(C#N)C5)nc(OC[C@@]56CCCN5C[C@H](F)C6)nc4c3F)c12 (some centres unmarked)")
"FALSE"
>>> assigned_label("CCc1c(F)ccc2cc(O)cc(-c3ncc4c(N5CCC(O)C(F)(F)CC5)nc(OC[C@@]56CCCN5C[C@H](F)C6)nc4c3F)c12 (some centres unmarked)")
"TRUE"
>>> assigned_label("CCc1c(F)ccc2cc(O)cc(-c3ncc4c(N5CCCC6(CC(O)C6)C5)nc(OCC5(CN(C)C)CC5)nc4c3F)c12 (centres unmarked)")
"FALSE"
>>> assigned_label("CCc1c(F)ccc2cc(O)cc(-c3ncc4c(N5CCCCn6nc(C(=O)N(C)C)cc6C5)nc(OC[C@@]56CCCN5C[C@H](F)C6)nc4c3F)c12")
"TRUE"
>>> assigned_label("CCc1c(F)ccc2cc(O)cc(-c3ncc4c(N5CCCC6(CCS(=O)(=O)N6)C5)nc(OC[C@@]56CCCN5C[C@H](F)C6)nc4c3F)c12 (some centres unmarked)")
"TRUE"
>>> assigned_label("CCc1c(F)ccc2cc(O)cc(-c3ncc4c(N5CC6CC(O)C(C6)C5)nc(OC[C@]56CCCN5[C@H](COC(=O)N(C)C)CC6)nc4c3F)c12 (some centres unmarked)")
"FALSE"
>>> assigned_label("CCc1c(F)ccc2cc(O)cc(-c3ncc4c(N5CCC[C@@]6(CCO6)C5)nc(OCC5(CN(C)C)CC5)nc4c3F)c12")
"TRUE"
>>> assigned_label("Oc1cc(-c2ncc3c(N4C[C@@H]5C[C@H](C4)[C@H](O)C5)nc(OC[C@@]45CCCN4C[C@H](F)C5)nc3c2F)c2ccccc2c1")
"FALSE"
>>> assigned_label("C#Cc1c(F)ccc2cc(O)cc(-c3ncc4c(N5CCC[C@@](C)(O)C5)nc(OCC5(CN6CCCC6)CC5)nc4c3F)c12")
"TRUE"
>>> assigned_label("CCc1c(F)ccc2cc(O)cc(-c3ncc4c(N5CC6CCC(C5)C6C#N)nc(OC[C@@]56CCCN5C[C@H](F)C6)nc4c3F)c12 (some centres unmarked)")
"FALSE"
>>> assigned_label("CCc1c(F)ccc2cc(O)cc(-c3ncc4c(N5CCOCC(C)(O)C5)nc(OCC56CCCN5[C@H](COC(=O)N(C)C)CC6)nc4c3F)c12 (stereo in doubt)")
"FALSE"
>>> assigned_label("CCc1c(F)ccc2cc(O)cc(-c3ncc4c(N5CCC[C@@](C)(O)C5)nc(OC[C@@]56CCCN5[C@H](COC(=O)NC)CC6)nc4c3F)c12")
"FALSE"
>>> assigned_label("CCc1c(F)ccc2cc(O)cc(-c3ncc4c(N5CCCn6nc(C(=O)N(C)C)cc6C5)nc(OC[C@]56CCCN5[C@H](COC(=O)N(C)C)CC6)nc4c3F)c12")
"TRUE"

* * *

- System: KRas-mediated phosphorylation of ERK in H460 cells
- Experiment Notes: Inhibition of KRas-mediated phosphorylation of ERK (Cisbio HTRF pERK), H460 cells
- Assay type: cell-based
- Particulars: Homo sapiens, NCI-H460, HTRF pERK
As shown below, each of these molecules has a reported IC50 value.
Readout Type: IC50 (nM)

>>> value_observed("C=C1[C@@H]2CC[C@H]1CN(c1nc(OC[C@@]34CCCN3C[C@H](F)C4)nc3c(F)c(-c4cc(O)cc5ccc(F)c(CC)c45)ncc13)C2")
802
>>> value_observed("CCc1c(F)ccc2cc(O)cc(-c3ncc4c(N5CCC[C@@](C)(O)C5)nc(OC[C@@]56CCCN5[C@H](COC(=O)NC(C)C)CC6)nc4c3F)c12")
29
>>> value_observed("CCc1c(F)ccc2cc(O)cc(-c3ncc4c(N5CC=CCC5)nc(OC[C@@]56CCCN5C[C@H](F)C6)nc4c3F)c12")
75

* * *

- Target Of Assay: KRas^G12R (Homo sapiens, UniProt P01116, G12R)
- Construct: Biotinylated KRas (corresponding to amino acids 1-169, produced at Accelegan Inc.); biotin (biotinylated); purchased Accelegan Inc
- Sequence (P01116 1-169 isoform P01116-2 G12R): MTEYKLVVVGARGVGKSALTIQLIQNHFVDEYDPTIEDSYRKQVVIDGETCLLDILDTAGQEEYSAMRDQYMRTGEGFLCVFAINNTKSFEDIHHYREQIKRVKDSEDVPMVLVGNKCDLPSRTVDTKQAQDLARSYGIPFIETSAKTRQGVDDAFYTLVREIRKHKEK
- Experiment Notes: KRas binding assay (TR-FRET tracer displacement), KRas G12R
As shown below, each of these molecules has a reported log10 IC50 value.
Readout Type: log10 IC50 (log10 of the value in nM)

>>> value_observed("CCc1c(F)ccc2cc(O)cc(-c3ncc4c(N5CCC6(CNC(=O)OC6)C5)nc(OC[C@@]56CCCN5C[C@H](F)C6)nc4c3F)c12 (some centres unmarked)")
1.82
>>> value_observed("Cc1cc2[nH]nnc2c(-c2ncc3c(N4C[C@@H]5C[C@H](C4)[C@H](O)C5)nc(OCC45CCCN4CCC5)nc3c2F)c1C")
3.81
>>> value_observed("CCCCN(CCCC)C(=O)OC[C@@H]1CC[C@@]2(COc3nc(N4CCC[C@@](C)(O)C4)c4cnc(-c5cc(O)cc6ccc(F)c(CC)c56)c(F)c4n3)CCCN12")
1.08
>>> value_observed("CCc1c(F)ccc2cc(O)cc(-c3ncc4c(NCc5cc(C(=O)N(C)C)n(CC6CC(O)C6)n5)nc(OC[C@@]56CCCN5C[C@H](F)C6)nc4c3F)c12 (some centres unmarked)")
2.20
>>> value_observed("Oc1cc(Cl)c(C2CC2)c(-c2ncc3c(N4C[C@H]5C[C@@H](C4)[C@H](O)C5)nc(OCC45CCCN4CCC5)nc3c2F)c1")
0.30
>>> value_observed("CCc1c(F)ccc2cc(OC)cc(-c3ncc4c(N5C[C@@H]6C[C@H](C5)[C@H](O)C6)nc(OC[C@@]56CCCN5C[C@H](F)C6)nc4c3F)c12")
3.12
>>> value_observed("CCc1c(F)ccc2cc(O)cc(-c3ncc4c(N5CC6CCC(C5)C6C)nc(OC[C@@]56CCCN5C[C@H](F)C6)nc4c3F)c12 (some centres unmarked)")
1.98
>>> value_observed("CCc1c(F)ccc2cc(O)cc(-c3ncc4c(N5CCC[C@@](C)(O)C5)nc(OC[C@@]56CCCN5[C@@H](CF)CC6)nc4c3F)c12")
0.78
>>> value_observed("Oc1cc(-c2ncc3c(N4CCCC5(CCO5)C4)nc(OC[C@@]45CCCN4C[C@H](F)C5)nc3c2F)c2c(Cl)c(F)ccc2c1 (some centres unmarked)")
0.30
>>> value_observed("CCCCN(C)C(=O)OC[C@@H]1CC[C@@]2(COc3nc(N4CCC[C@@](C)(O)C4)c4cnc(-c5cc(O)cc6ccc(F)c(CC)c56)c(F)c4n3)CCCN12")
0.48
>>> value_observed("CCc1c(F)ccc2cc(O)cc(-c3ncc4c(N5CCCCC(C#N)C5)nc(OC[C@@]56CCCN5C[C@H](F)C6)nc4c3F)c12 (some centres unmarked)")
1.00
>>> value_observed("CN(C)C(=O)c1cc2n(n1)CCCN(c1nc(OCC34CCCN3CCC4)nc3c(F)c(-c4c5ccccc5cc5[nH]ncc45)ncc13)C2")
2.00
>>> value_observed("CCc1c(F)ccc2cc(O)cc(-c3ncc4c(N5CCOCC(C)(O)C5)nc(OCC56CCCN5[C@H](COC(=O)N(C)C)CC6)nc4c3F)c12 (stereo in doubt)")
0.60
>>> value_observed("O[C@@H]1C[C@H]2C[C@@H]1CN(c1nc(OC[C@@]34CCCN3C[C@H](F)C4)nc3c(F)c(-c4cccc5cc(C(F)F)ccc45)ncc13)C2")
4.80
>>> value_observed("CCc1c(F)ccc2cc(O)cc(-c3ncc4c(N5CCC(CC6CCOC6)C5)nc(OC[C@@]56CCCN5C[C@H](F)C6)nc4c3F)c12 (some centres unmarked)")
2.64
>>> value_observed("CCc1c(F)ccc2cc(O)cc(-c3ncc4c(NCc5cc(C(=O)N(C)C)n(CCC#N)n5)nc(OC[C@@]56CCCN5C[C@H](F)C6)nc4c3F)c12")
1.20
>>> value_observed("CCc1c(F)ccc2cc(O)cc(-c3ncc4c(NCc5cc(C(=O)N(C)C)nn5C[C@H]5C[C@H](O)C5)nc(OC[C@@]56CCCN5C[C@H](F)C6)nc4c3F)c12")
0.70
>>> value_observed("CCc1c(F)ccc2cc(O)cc(-c3ncc4c(N5CC6CCC(CC(=O)N(C)C)(C6)C5)nc(OC[C@@]56CCCN5C[C@H](F)C6)nc4c3F)c12 (some centres unmarked)")
1.00
>>> value_observed("CCc1c(F)ccc2cc(O)cc(-c3ncc4c(NS(=O)(=O)C5CCCNCC5)nc(OC[C@@]56CCCN5C[C@H](F)C6)nc4c3F)c12 (some centres unmarked)")
3.27
>>> value_observed("CCc1c(F)ccc2cc(O)cc(-c3ncc4c(N5CC6CN(C7COC7)CC6C5)nc(OC[C@@]56CCCN5C[C@H](F)C6)nc4c3F)c12 (some centres unmarked)")
3.54
>>> value_observed("Cc1cc2[nH]nnc2c(-c2ncc3c(N4CCCC5(CNS(=O)(=O)N5)C4)nc(OCC45CCCN4CCC5)nc3c2F)c1C (centres unmarked)")
1.49
